tested_system: endothelin receptor A (ETA) (Sus scrofa)
Construct: A membrane fraction prepared from the porcine heart; from tissue; host or cells: porcine heart membrane fraction
Sequence (Q29010 21-427): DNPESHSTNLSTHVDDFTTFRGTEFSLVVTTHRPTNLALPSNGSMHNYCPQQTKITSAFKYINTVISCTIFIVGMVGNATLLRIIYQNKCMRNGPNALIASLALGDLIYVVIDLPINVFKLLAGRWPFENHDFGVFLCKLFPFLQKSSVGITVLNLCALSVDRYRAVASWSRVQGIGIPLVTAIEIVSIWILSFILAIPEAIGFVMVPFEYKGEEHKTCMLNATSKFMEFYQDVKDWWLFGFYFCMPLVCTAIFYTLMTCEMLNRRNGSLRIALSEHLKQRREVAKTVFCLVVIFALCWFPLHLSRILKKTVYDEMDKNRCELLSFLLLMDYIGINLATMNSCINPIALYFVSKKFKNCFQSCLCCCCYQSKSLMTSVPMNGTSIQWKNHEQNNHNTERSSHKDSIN
experiment_notes: Assay of affinity for receptor (1): binding activity on ETA receptor, 125I-labeled endothelin-1, porcine heart membrane fraction
Set-up: key: relative specific activity; reference cyclic pentapeptide ETA binding = 1.0
experimental_conditions: specific activity, taking the binding activity of control cyclo[-D-Glu-Ala-D-aIle-Leu-D-Trp-] on receptor A as 1.0, 25°C, 1 hour
Non-standard residues stand in square brackets, D forms with d. Residues, ends and D or L forms follow the SMILES beside them.
Kindly supply the reported Binding Activity on ET Receptor (R. act.) ETA values for the records listed here.
When you answer, write just the number.

The value of Binding Activity on ET Receptor (R. act.) ETA measured for the compound CC(C)C[C@@H]1NC(=O)[C@@H](CC(C)C)NC(=O)[C@H](CCC(=O)O)NC(=O)[C@H](C)NC(=O)[C@@H](CC(=O)O)NC(=O)[C@@H](Cc2c[nH]c3ccccc23)NC1=O [Example 3, cyclo[-D-Asp-Ala-Glu-D-Leu-Leu-D-Trp-]] (cyclo(AE[dL]L[dW][dD])) turned out to be 7.9

The compound listed as CC(C)C[C@@H]1NC(=O)[C@@H](CC(C)C)NC(=O)[C@@H](CCC(=O)O)NC(=O)[C@H](C)NC(=O)[C@@H](CC(=O)O)NC(=O)[C@@H](Cc2c[nH]c3ccccc23)NC1=O [Example 4, cyclo[-D-Asp-Ala-D-Glu-D-Leu-Leu-D-Trp-]] (cyclo(A[dE][dL]L[dW][dD])) shows Binding Activity on ET Receptor (R. act.) ETA equal to 2.3

These entries and their values trace back to patent EP0552417B1.
